Below are pIC50 values for 3',5'-cyclic-AMP phosphodiesterase 4D (Homo sapiens, UniProt Q08499) collected from several publications.
pIC50: −log10 of the molar value.
Note to self: values exactly at 7 are 1. So pIC50 at or above 7 is 1, below is 0.

compound=CN1CCN(C(=O)c2cc3cccnc3c(-c3cccc([N+](=O)[O-])c3)n2)CC1 assigned_label=0
compound=COc1cccc(-c2cc(COc3cccc(Cl)c3)cc3cccnc23)c1 assigned_label=1
compound="CC1CCc2c(sc(NC(=O)c3ccc([N+](=O)[O-])cc3)c2C(N)=O)C1 (centres undefined)" assigned_label=0
compound=OCC1CCN(c2cnccc2Oc2ccc(Nc3nc4ccccc4[nH]3)cc2)CC1 assigned_label=0
compound=CCc1nc(-c2cc(OCC3CC3)cc(OCC3CC3)c2)c2cc(OC)c(OCc3ccccc3)cc2n1 assigned_label=0
compound=Cl.O=C(Nc1cc(Cl)c(O)c2ncccc12)c1ccc(OC(F)F)c(OCC2CC2)c1 assigned_label=0

Attention now shifts to the item below.
Q. Textbook exercise: given the entry `C=CCn1cc(-c2nc3ccccc3nc2Cl)c2ccccc21` , state whether its pIC50 is greater than or equal to 7.
A. 0

* * *

Below are IC50 values for 3',5'-cyclic-AMP phosphodiesterase 4D (Homo sapiens) collected from several publications.
One number for each entry, in µM.

Study these solved cases before continuing.
molecule=Cn1nc(-c2ccc(N)cc2)s/c1=N\C1CCCCC1 test_value=25.7
molecule=Cc1ccc(-c2ccc(CN3CCS/C3=N/C#N)o2)cc1 test_value=121
molecule=Cn1nc(-c2ccc(Cl)cc2)s/c1=N\c1cccc(C(=O)O)c1 test_value=21.3
molecule=COc1nn(-c2ccccn2)c2cc(-c3ccc([C@H]4C[C@@H]4C(=O)O)cc3)ccc12 test_value=1.6
molecule=Cc1ccc(-c2ccc(C(=O)N3CCc4ccccc4C3)o2)cc1 test_value=56.8

For each of the items listed, what is its IC50?
1. CC(C)/N=c1\sc(-c2ccc(Cl)cc2)nn1C
2. CCc1c(C)nc(-c2ccc(F)s2)nc1Nc1ccc(CC(=O)O)cc1F
3. CCC1CCc2c(sc(NC(=O)c3ccccc3[N+](=O)[O-])c2C(N)=O)C1 (stereo unspecified)
4. CCN(C)c1nc2oc3c(NCc4cccnc4)ncnc3c2c2c1CCC(C)(C)C2
5. CCc1c(C)nc(-c2ccccc2)nc1Nc1ccc(C(=O)O)cc1
6. N#CC(c1ccc(OC(F)F)c(OC2CCCC2)c1)c1ccc(Cl)nn1 (stereo unspecified)

A.
1: 17; 2: 3.1; 3: 0.126; 4: 0.24; 5: 2.1; 6: 0.31

* * *

pIC50 for 3',5'-cyclic-AMP phosphodiesterase 4D (Homo sapiens), merged from several publications.
Give bare numbers, as −log10 of the molar value.

Some compounds with known pIC50 results, for comparison:
smiles_entry=COc1ccccc1CNc1ncnc2c1sc1nc(N3CCOCC3)c3c(c12)CC(C)(C)OC3 reported_property=pIC50 test_value=6.92
smiles_entry=COc1cc2c(cc1OC1CCCC1)CN(C(=O)c1ccc(O)cc1)CC2 reported_property=pIC50 test_value=4.79
smiles_entry=OCC1CCN(c2nccnc2Oc2ccc(Nc3nc4ccccc4o3)cc2)CC1 reported_property=pIC50 test_value=5.13
smiles_entry=CCOC(=O)c1ccc(COc2ccc(Cl)c3c2C2(CCCCC2)NC(=O)N3)o1 reported_property=pIC50 test_value=5.99

Answer for every listed entry: what is its pIC50? The entries follow.
1. CC1(C)CCc2c(N3CCOCC3)nc3oc4c(NCCN5CCOCC5)ncnc4c3c2C1
2. COc1ccc(C(=O)Nc2cc(Cl)c(O)c3ncccc23)cc1OC1CCCC1.Cl
3. COC(=O)c1ccccc1-c1nn(C)/c(=N/C2CCCCC2)s1

A.
8.03
5.50
4.52

Batch request: pIC50 per item, same order as input.
1. CN(CCN)c1cccc(-c2cc3nccc(-c4ccc(OC(F)F)c(OCC5CC5)c4)n3n2)c1
2. COc1cccc(-c2cc3nccc(-c4ccc(OC(F)F)c(OCC5CC5)c4)n3n2)c1

A.
1. 7.33
2. 7.52

* * *

Consider the following pIC50 data for 3',5'-cyclic-AMP phosphodiesterase 4D (Homo sapiens, UniProt Q08499), collected from several reports.
Give bare numbers, as −log10 of the molar value.

Solved cases (3 shown):
compound=CS(=O)(=O)c1ccc(-c2cnc(NCc3ccco3)n3cnnc23)cc1 target_under_test="3',5'-cyclic-AMP phosphodiesterase 4D (Homo sapiens, UniProt Q08499)" test_value=4.70
compound=FC(F)Oc1ccc(-c2ccnc3cc(-c4cccc(-n5cnnn5)c4)nn23)cc1OCC1CC1 target_under_test="3',5'-cyclic-AMP phosphodiesterase 4D (Homo sapiens, UniProt Q08499)" test_value=7.36
compound="CC(c1cccc(-c2cc(C(C)(C)S(C)(=O)=O)cc3cccnc23)c1)N(C(=O)C1CC1)c1ccc(S(C)(=O)=O)cc1 (centres undefined)" target_under_test="3',5'-cyclic-AMP phosphodiesterase 4D (Homo sapiens, UniProt Q08499)" test_value=8.85

// next entry
Q. # input compound: `CC(C)NC(=O)/C(=C/c1cccc(-c2cc(C(C)(C)C#N)cc3cccnc23)c1)c1ccc(S(C)(=O)=O)cc1` ; wanted: its pIC50
A. 9.15

* * *

Literature pIC50 values, system: UniProt Q08499.
pIC50: −log10 of the molar value.
pIC50 below 6 gives not met; pIC50 at or above it gives met.

A selection of reference data follows.
smiles_entry=Cn1nc(-c2ccc(Cl)cc2)s/c1=N\c1cccc(-c2noc(O)n2)c1 target_under_test="UniProt Q08499" assigned_label="not met"
smiles_entry=N#Cc1cccc(-c2nc(N3CCC(O)CC3)cc3cccnc23)c1 target_under_test="UniProt Q08499" assigned_label=met
smiles_entry=c1cncc(-c2cnc(NCc3cccc4c3CCO4)n3cnnc23)c1 target_under_test="UniProt Q08499" assigned_label="not met"

Query molecule follows.
Q. Could you verify whether the entry `N#C/N=C1/SCCN1C(=O)c1coc(-c2cccc(Cl)c2)n1` shows pIC50 of no less than 6?
A. not met

* * *

Record: compiled pIC50 on 3',5'-cyclic-AMP phosphodiesterase 4D (Homo sapiens, UniProt Q08499) from multiple reports.
Sequence (Q08499 whole entry): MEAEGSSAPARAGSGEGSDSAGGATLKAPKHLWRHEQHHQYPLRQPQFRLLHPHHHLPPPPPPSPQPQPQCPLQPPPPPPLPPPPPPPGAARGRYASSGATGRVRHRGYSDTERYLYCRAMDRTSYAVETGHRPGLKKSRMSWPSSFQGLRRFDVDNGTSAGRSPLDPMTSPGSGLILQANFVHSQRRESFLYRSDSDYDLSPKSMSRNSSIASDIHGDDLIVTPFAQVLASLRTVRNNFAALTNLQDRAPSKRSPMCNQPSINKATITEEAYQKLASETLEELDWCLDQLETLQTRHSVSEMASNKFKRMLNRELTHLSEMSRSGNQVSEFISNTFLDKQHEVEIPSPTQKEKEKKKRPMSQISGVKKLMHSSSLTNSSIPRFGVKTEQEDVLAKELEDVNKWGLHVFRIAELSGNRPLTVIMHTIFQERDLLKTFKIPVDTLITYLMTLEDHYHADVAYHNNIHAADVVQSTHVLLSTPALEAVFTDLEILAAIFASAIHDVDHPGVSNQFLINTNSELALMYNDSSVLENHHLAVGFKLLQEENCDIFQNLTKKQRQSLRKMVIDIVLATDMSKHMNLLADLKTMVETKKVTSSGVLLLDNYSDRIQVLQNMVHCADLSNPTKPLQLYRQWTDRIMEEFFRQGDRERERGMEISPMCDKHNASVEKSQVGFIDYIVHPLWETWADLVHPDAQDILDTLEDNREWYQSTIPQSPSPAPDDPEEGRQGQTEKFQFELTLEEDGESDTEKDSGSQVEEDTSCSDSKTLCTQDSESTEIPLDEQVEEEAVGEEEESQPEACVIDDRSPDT
Answers are plain numbers, as −log10 of the molar value.

compound=C=CCn1cc(-c2nc3ccccc3nc2Cl)c2cc(OC)ccc21 target_under_test="3',5'-cyclic-AMP phosphodiesterase 4D (Homo sapiens, UniProt Q08499)" reported_property=pIC50 test_value=4.97

Give me pIC50 for each of these compounds, listed below.
1. C=CCc1c(C)nc(-c2ccc(C)s2)nc1Nc1ccc(C(=O)O)cc1
2. CC(C)(c1cc(-c2cccc(C(N)=O)c2)c2ncccc2c1)S(C)(=O)=O

A.
5.89
7.13

Please give pIC50, item by item, for the list that follows.
1. CC1(C)CCc2c(N3CCOCC3)nc3sc4c(NCCN5CCOCC5)ncnc4c3c2C1
2. Cn1nc(-c2ccc(C(=O)NCCN3CCOCC3)cc2)s/c1=N\C1CCCCC1
3. CNc1nc2sc3c(NCCN4CCOCC4)ncnc3c2c2c1CCC(C)(C)C2
4. Cn1nc(-c2cccc(C(N)=O)c2)s/c1=N\C1CCCCC1
5. CCNc1nc2oc3c(NCCN4CCOCC4)ncnc3c2c2c1CCC(C)(C)C2
6. FC(F)Oc1ccc(-c2ccnc3cc(-c4cccc(Cl)c4)nn23)cc1OCC1CC1

A.
8.34
5.06
8.38
4.72
8.57
7.44

Hey, quick one: what's pIC50 for each of these?
1. NC(=O)c1c(NC(=O)c2ccccc2[N+](=O)[O-])sc2c1CCC(c1ccccc1)C2 (stereo not given)
2. Cn1nc(-c2ccc(C(N)=O)c(N)c2)s/c1=N\C1CCCCC1
3. N#C/N=C1/SCCN1C(=O)c1ccc(-c2cccc(Cl)c2)o1
4. O=C(Nc1c(Cl)cncc1Cl)c1ccc(OC(F)F)c(OCCCSC2CCOC2=O)c1 (stereo not given)
5. C[C@@H]1COCCN1c1cc(N2C3CCC2COC3)nc2[nH]c(-c3ccccn3)nc12
6. COc1c(OCCCCCCN2CCCC2)cc2oc3cc4c(c(O)c3c(=O)c2c1CC=C(C)C)C=CC(C)(C)O4
7. CC(=O)Nc1ccc(-c2nn(C)/c(=N/C3CCCCC3)s2)cc1

A.
1: 5.80; 2: 4.59; 3: 4.00; 4: 8.26; 5: 5.04; 6: 7.00; 7: 4.47

Take each entry in turn and give its pIC50.
1. N#C/N=C1/SCCN1C(=O)c1ccc(-c2c(F)cccc2F)o1
2. COc1ccc(C(=O)Nc2ccccc2F)cc1OC1CCCC1

A.
[4.05, 4.97]

* * *

Published IC50 for 3',5'-cyclic-AMP phosphodiesterase 4D (Homo sapiens, UniProt Q08499), assembled from different documents, is shown next.
Give bare numbers, in µM.

Completed entries (count: 4):
smiles_entry=N#CCCc1ccc(OCc2cc(-c3ccccc3)c3ncccc3c2)cc1 reported_property=IC50 test_value=0.0222
smiles_entry=C=CCc1c(C)nc(-c2ccc(C)s2)nc1Nc1ccc(CC(=O)O)cc1 reported_property=IC50 test_value=8.8
smiles_entry=N#C/N=C1/SCCN1Cc1ccc(-c2ccc(Cl)cc2)o1 reported_property=IC50 test_value=58.3
smiles_entry=CCOc1nc(Cl)cc2c1cnn2CC(=O)NO reported_property=IC50 test_value=0.0166

# next molecule below
Q. Name the reported IC50 value associated with the molecule `COc1cc2c(-c3cc(OCC4CC4)cc(OCC4CC4)c3)nc(-c3cc(OCC4CC4)cc(OCC4CC4)c3)nc2cc1OCCO`
A. 8.5
